B1: SNX8 (parent)
chain: LHQETQLIHVYLPLTSHILRAFVN

# Variants of: B1
# ASSAY_REMARKS: protein stability index of a GFP-peptide fusion (GPS, HEK-293T) (PSI 1-6); higher = more stable;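 note: lentivirally expressed fusions sorted by FACS into six bins by GFP to DsRed ratio, PSI derived from sequencing read proportions per bin multiplied by bin number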
# MEASUREMENT_PARAMETERS: c terminus: a fixed tail appended
# label = condition met if protein stability index >= 2 else condition not met

protein stability index >= 2 for T5L ?
condition met

Test whether the variant H17G records protein stability index of 2 or higher.
condition not met

Confirm if protein stability index reported for the variant N24V is 2 or above.
condition met

Textbook exercise: given the entry L14K , state whether its protein stability index is greater than or equal to 2.
condition met

Exam item: decide whether the reported protein stability index for N24F is at least 2.
condition met

Record E4C ; criterion: protein stability index no lower than 2. Met?
condition not met

Does the variant P13R have recorded protein stability index that is 2 or more?
condition met

For this variant, is measured protein stability index 2 or higher? H17D
condition met

Confirm if protein stability index reported for the variant L14W is 2 or above.
condition not met

Could you please find out whether F22Y has protein stability index that meets 2 or exceeds it?
condition met

Hello, I need to know if I8W has measured protein stability index not below 2. Thanks!
condition met

Reported protein stability index reaches at least 2 for T15N ?
condition met

Could you verify whether the entry P13M shows protein stability index of no less than 2?
condition met

protein stability index >= 2 for Q3F ?
condition met

Kindly determine if protein stability index recorded for Q3N is above or exactly 2.
condition met

# check: protein stability index of I8M is greater than or equal to 2
condition met

Decide: is the reported value of protein stability index for V23W equal to or greater than 2?
condition met

Quick check, protein stability index >= 2? I18F
condition not met

Does protein stability index meet or surpass 2 for L7A ?
condition met

Is reported protein stability index greater than or equal to 2 here: Y11D
condition not met

# check: protein stability index of N24T is greater than or equal to 2
condition met

Could you tell me if the measured protein stability index of V10D reaches 2 or more?
condition not met

Evaluate H9S : protein stability index at minimum 2?
condition met

Threshold query (protein stability index >= 2) on V10A
condition not met

Determine whether measured protein stability index meets or exceeds 2 for E4Y
condition met

Threshold query (protein stability index >= 2) on S16W
condition met

# bool: protein stability index of Y11R >= 2
condition not met

Test whether the variant A21F records protein stability index of 2 or higher.
condition not met

# bool: protein stability index of S16A >= 2
condition not met

Check this variant for protein stability index at or above 2: L14R
condition met

Identify whether the reported protein stability index of the following variant is 2 or greater: R20C
condition met

Reported protein stability index reaches at least 2 for R20A ?
condition met

Exam item: decide whether the reported protein stability index for V10N is at least 2.
condition not met

Is the recorded value of protein stability index equal to or greater than 2 for this variant? Q3G
condition met

Is the recorded value of protein stability index equal to or greater than 2 for this variant? H9C
condition met

protein stability index >= 2 for I18C ?
condition met
